These data points were gathered from patent US20090042251.

// reported Specificity constant kcat/KM (RCM-T1 refolding assay) for each item listed
Molecular target: T1, reduced and carboxymethylated (S54G, P55N)-RNase T1, P00651
T1 chain: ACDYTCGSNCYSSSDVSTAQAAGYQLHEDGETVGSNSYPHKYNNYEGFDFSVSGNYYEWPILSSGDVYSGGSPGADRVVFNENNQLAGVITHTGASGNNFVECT
Just the number please, in M⁻¹ s⁻¹, no unit attached.

>  <protein>
hFKBP12-IF4 (protein) GVQVETISPGDGRTFPKRGQTAVVHYTGMLEDGKKFDSSRDRNKPFKFMLGKQEVIRGWEEGVAQMSVGQRAKLTISPDYAYGVPSPDLIQYFSRREFMDAGEPEIGAIMLFTAMDGSEMPGVIREINGDSITVDFNHPLAGQTLVFDVELLKLEHHHHHH

>  <display_unit>
M⁻¹ s⁻¹

>  <value_observed>
850000

$$$$

Now look at this entry.
GET /values?readout=Specificity constant kcat/KM (RCM-T1 refolding assay)&item= hFKBP12-IF5 (protein) GVQVETISPGDGRTFPKRGQTCVVHYTGMLEDGKKFDSSRDRNKPFKFMLGKQEVIRGWEEGVAQMSVGQRAKLTISPDYAYGMPNPELVISVPREEFTKAGLEPQEGLYVMTDSGIAKIVSVGESEVSLDFNHPLAGKTLVFDVELLKLEHHHHHH 660000
